assay: Protein melting point by DSC; format: physicochemical; settings: protein melting point by DSC; in °C (unit assumed)
Parameter: Tm
Answer with a number only.

Illustrative cases are given below, each with its answer.
1) I30A: SP1 mutant I30A, SEQ ID NO:14 (protein, Sp1 mutant variant I30A mutated) MATRTPKLVKHTLLTRFKDEITREQIDNYANDYTNLLDLIPSMKSFNWGTDLGMESAELNRGYTHAFESTFESKSGLQEYLDSAALAAFAEGFLPTLSQRLVIDYFLY; 98
2) D38A S75A 6XH2: SP1 mutant D38A S75A 6XH2, SEQ ID NO:29 (protein, Sp1 mutant variant 6Xhis inserted into position 2, D38A and S75A mutated) MHHHHHHATRTPKLVKHTLLTRFKDEITREQIDNYINAYTNLLALIPSMKSFNWGTDLGMESAELNRGYTHAFEATFESKAGLQEYLDSAALAAFAEGFLPTLSQRLVIDYFLY; 112

Now for another entry.
Summary for this molecule, R23A: SP1 mutant R23A, SEQ ID NO:12 (protein, Sp1 mutant variant R23A mutated) MATRTPKLVKHTLLTRFKDEITAEQIDNYINDYTNLLDLIPSMKSFNWGTDLGMESAELNRGYTHAFESTFESKSGLQEYLDSAALAAFAEGFLPTLSQRLVIDYFLY : Tm is 108
